- subject_of_test: HIV-1 Env of isolate MGRM-G-011 (subtype G), on pseudovirus (HIV-1)
- measurement_description: cell-based or functional assay
measured_quantity: IC50 (µg/mL), neutralization of pseudovirus
Answers are plain numbers, in µg/mL.

// below: answered binders
PGT-128 (antibody, V domains shown) VH: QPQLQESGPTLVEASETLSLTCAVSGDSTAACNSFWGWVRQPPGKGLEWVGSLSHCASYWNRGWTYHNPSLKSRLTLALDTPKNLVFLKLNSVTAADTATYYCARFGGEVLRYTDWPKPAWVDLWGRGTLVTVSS VL: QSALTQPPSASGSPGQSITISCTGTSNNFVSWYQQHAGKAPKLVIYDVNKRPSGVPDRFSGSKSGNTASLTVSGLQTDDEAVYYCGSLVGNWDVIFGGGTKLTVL : 8.21
PGT-123 (antibody, V domains shown) VH: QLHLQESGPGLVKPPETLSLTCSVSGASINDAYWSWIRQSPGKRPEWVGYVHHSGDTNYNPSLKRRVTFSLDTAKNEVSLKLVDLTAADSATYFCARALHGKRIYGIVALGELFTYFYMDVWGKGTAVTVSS VL: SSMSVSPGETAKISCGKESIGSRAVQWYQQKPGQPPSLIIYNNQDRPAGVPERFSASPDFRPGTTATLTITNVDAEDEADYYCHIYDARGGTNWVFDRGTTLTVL : 14.9

Now turn to the next binder.
Prompt: Look up IC50 (µg/mL), neutralization of pseudovirus for this binder: PGT-126 (antibody, V domains shown) VH: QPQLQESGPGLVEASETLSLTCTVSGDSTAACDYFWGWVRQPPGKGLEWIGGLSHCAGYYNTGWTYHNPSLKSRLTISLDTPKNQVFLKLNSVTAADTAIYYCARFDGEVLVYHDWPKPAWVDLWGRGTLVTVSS VL: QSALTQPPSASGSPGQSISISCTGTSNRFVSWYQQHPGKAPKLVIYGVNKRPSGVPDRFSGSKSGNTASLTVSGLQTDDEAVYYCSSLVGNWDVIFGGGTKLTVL
Completion: 7.32
